- System: MOLT-4 leukemia
- TEST_DESCRIPTION: NCI tumour cell line growth inhibition, 48 h
PARAMETER_MEASURED: TGI

Example molecules with recorded TGI:
[
  {
    "MOLECULE": "CNC(=O)c1cc(Oc2ccc3nc(NC(=O)Nc4ccc(Cl)c(Cl)c4)sc3c2)ccn1",
    "TGI": "> 100 µM"
  },
  {
    "MOLECULE": "CC(=O)OCC(OC(C)=O)C(OC(C)=O)C(/C=N/N(C(C)=O)S(=O)(=O)c1ccc(/C=C2\\NC(=O)NC2=O)cc1)OC(C)=O (stereo not given)",
    "TGI": "> 100 µM"
  },
  {
    "MOLECULE": "CC1(C)CCSC(/C=C/c2ccccc2)=N1",
    "TGI": "> 100 µM"
  },
  {
    "MOLECULE": "CC(C)=CCC/C(C)=C/Cc1cc(/C=C/c2cc(O)c(CC=C(C)C)c(O)c2)cc(O)c1O",
    "TGI": "11.8 µM"
  },
  {
    "MOLECULE": "N#Cc1c(NC(=O)c2cccs2)[n+]([O-])c2ccccc2[n+]1[O-]",
    "TGI": "> 100 µM"
  },
  {
    "MOLECULE": "COc1ccc(CSCc2cc(OC)c(OC)c(OC)c2)cc1",
    "TGI": "> 100 µM"
  },
  {
    "MOLECULE": "O=c1c2cc(I)ccc2nc(-c2cccs2)n1Nc1ccccc1",
    "TGI": "> 100 µM"
  },
  {
    "MOLECULE": "C/C(=N\\NC(N)=S)c1ccc(/C(C)=N/NC(N)=S)cc1",
    "TGI": "> 100 µM"
  },
  {
    "MOLECULE": "CSc1nc(C)cc(Nc2ccc(O)c(CN3CCCCC3)c2)n1",
    "TGI": "> 100 µM"
  }
]

Kindly consider the entry below.
Prompt: Entry under review: Cc1c(CCN=P(c2ccccc2)(c2ccccc2)c2ccccc2)c(=O)n2c([nH]c3ccccc32)c1C#N . Reported TGI?
Response: > 10 µM

Value source: PubChem BioAssay (NCI)
